Property: activation at 5 µM; scope: individual compounds
Target: human S1P1 receptor (Homo sapiens, UniProt P21453)
Construct: expressed in transfected cells; membranes used
Sequence (P21453 whole entry): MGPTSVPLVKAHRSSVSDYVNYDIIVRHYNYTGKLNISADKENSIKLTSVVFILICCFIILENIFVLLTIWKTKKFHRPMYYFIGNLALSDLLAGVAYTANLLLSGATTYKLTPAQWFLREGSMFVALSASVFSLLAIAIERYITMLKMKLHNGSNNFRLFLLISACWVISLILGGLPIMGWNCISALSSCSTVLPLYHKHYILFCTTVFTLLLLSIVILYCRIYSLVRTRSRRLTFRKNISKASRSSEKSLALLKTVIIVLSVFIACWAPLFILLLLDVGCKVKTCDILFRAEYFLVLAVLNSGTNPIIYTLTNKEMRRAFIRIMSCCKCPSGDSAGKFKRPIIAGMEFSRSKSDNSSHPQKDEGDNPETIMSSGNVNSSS
Assay: GTP γ35S binding assay for S1P1 activity
Assay type: biochemical
Conditions: S1P1 receptor GTPγ^35S, 5 μM; read-out: % STIMULATION @ 5 μM

smiles_code: O=P(O)(O)CCCNCc1ccc(-c2ccc(CCCc3ccccc3)cc2)c(-c2cccs2)n1
unit: %
activation at 5 µM: 91.1

smiles_code: CCCCCCc1ccc(-c2ccc(CNCCCP(=O)(O)O)nc2-c2cccs2)cc1CCC
unit: %
activation at 5 µM: 79.1

smiles_code: CCCCCCc1ccc(-c2ccc(CNCCCP(=O)(O)O)nc2-c2nccs2)cc1
unit: %
activation at 5 µM: 89.3

* * *

Molecular target: human S1P1 receptor (Homo sapiens)
Construct: expressed in transfected cells; membranes used
Test: GTP γ35S binding assay for S1P1 activity
Type: biochemical
Details: S1P1 receptor GTPγ^35S, 5 μM; read-out: % STIMULATION @ 5 μM

compound: O=P(O)(O)CCCNCc1ccc(-c2ccc(CCCc3ccccc3)cc2)c(-c2cccc(Cl)c2)n1 [Compound 13]
activation at 5 µM: 64%

compound: CCCCCCc1ccc(-c2ccc(CNCCCP(=O)(O)O)nc2-c2ccsc2)cc1 [Compound 6]
activation at 5 µM: 76.9%

compound: CCCCCCc1ccc(-c2ccc(CNCCCP(=O)(O)O)nc2-c2ccc(F)s2)cc1 [Compound 3]
activation at 5 µM: 111%

compound: CCCCCOc1ccc(-c2ccc(CNCCCP(=O)(O)O)nc2-c2ccc(F)cc2)cc1 [Compound 18]
activation at 5 µM: 104%

compound: O=P(O)(O)CCCNCc1ccc(-c2ccc(CCCc3ccccc3)cc2)c(-c2ccccc2)c1 [Compound 12]
activation at 5 µM: 64%

compound: O=P(O)(O)CCCNCc1ccc(-c2ccc(CCC(F)(F)C(F)(F)C(F)(F)C(F)(F)F)cc2)c(-c2ccccc2)c1 [Compound 11]
activation at 5 µM: 71.8%

compound: CCCCCCc1ccc(-c2ccc(CNCCCP(=O)(O)O)nc2-c2ccccc2)cc1CCC [Compound 16]
activation at 5 µM: 73.1%

compound: CCCCCCc1ccc(-c2ccc(CNCCCP(=O)(O)O)nc2-c2cccs2)cc1 [Compound 2]
activation at 5 µM: 68.1%

compound: CCCCCCc1ccc(-c2ccc(CNCCCP(=O)(O)O)cc2-c2ccccc2)cn1 [Compound 20]
activation at 5 µM: 94.7%

compound: CCCCCOc1ccc(-c2ccc(CNCCCP(=O)(O)O)nc2-c2ccccc2)cc1 [Compound 19]
activation at 5 µM: 95.5%

compound: O=P(O)(O)CCCNCc1ccc(-c2ccc(CCCc3ccccc3)cc2)c(-c2ccccc2)n1 [Compound 14]
activation at 5 µM: 86.6%

compound: CCCCCCc1ccc(-c2ccc(CNCCCP(=O)(O)O)nc2-c2cocn2)cc1 [Compound 7]
activation at 5 µM: 86.1%

compound: CCCCCCc1ccc(-c2ccc(CNCCCP(=O)(O)O)nc2-c2ccccc2)cc1 [Compound 27]
activation at 5 µM: 112%

compound: CCCCCCc1ccc(-c2ccc(CNCCCP(=O)(O)O)cc2-c2ccccc2)nc1 [Compound 1]
activation at 5 µM: 79.4%

compound: CCCCCCCCc1ccc(-c2ccc(CNCCCP(=O)(O)O)cc2-c2ccccc2)cn1 [Compound 22]
activation at 5 µM: 89.7%

compound: CCCCCOc1ccc(-c2ccc(CNCCCP(=O)(O)O)nc2-c2cccc(F)c2)cc1 [Compound 17]
activation at 5 µM: 83.9%

compound: CCCCCCc1ccc(-c2ccc(CNCCCP(=O)(O)O)nc2-c2ccco2)cc1 [Compound 9]
activation at 5 µM: 88.6%
